Provenance of the data: patent US7105553B2

QUANTITY KIND: melting point (°C)

Cc1nc(N(Cc2cccnc2)C(=O)Cc2ccc(-c3ccccc3)cc2)sc1S(N)(=O)=O | 189
Cc1nc(N(C)C(=O)Cc2ccc(-c3cccc(O[Si](C)(C)C(C)(C)C)c3)cc2)sc1S(N)(=O)=O | 161
CNS(=O)(=O)c1sc(N(C)C(=O)Cc2ccc(-c3cccc(Cl)c3)cc2)nc1C | 187
Cc1nc(N(C)C(=O)Cc2ccc(-c3ccccn3)cc2)sc1S(=O)(=O)NCCO | 175

A. CCOc1ccc(CC(=O)N(CCN(C)C)c2nc(C)c(S(=O)(=O)NC)s2)cc1
B. CNS(=O)(=O)c1sc(N(C)C(=O)Cc2ccc(-c3ncccc3N)cc2)nc1C
Query: Kindly identify which of A and B has the larger recorded melting point value. Field: selected label. Fill in the label of the entry you choose.
Reply: A
(A: 153 °C, B: 80 °C)

====

QUANTITY KIND: melting point (°C)

As a guide, the following entries are already answered.
CNS(=O)(=O)c1sc(N(C)C(=O)Cc2ccc(Br)cc2)nc1C | 168
CNS(=O)(=O)c1sc(N(CCCN2CCCC2=O)C(=O)Cc2ccc(-c3ccccc3)cc2)nc1C | 158
CNS(=O)(=O)c1sc(N(C)C(=O)Cc2ccc(-c3ccc(OC(F)(F)F)cc3)cc2)nc1C | 109
COCCN(C(=O)Cc1ccc(-c2ccccc2)cc1)c1nc(C)c(S(N)(=O)=O)s1 | 163
Cc1nc(N(CCCN2CCCC2=O)C(=O)Cc2ccc(-c3ccccc3)cc2)sc1S(N)(=O)=O | 203
CC(=O)Nc1cccc(-c2ccc(CC(=O)N(C)c3nc(C)c(S(N)(=O)=O)s3)cc2)c1 | 234
Cc1nc(N(C)C(=O)Cc2ccc(-c3cccnc3)cc2)sc1S(N)(=O)=O.Cl | 177
Cc1nc(N(C)C(=O)Cc2ccc(-c3cnccn3)cc2)sc1S(N)(=O)=O | 217

P. CNS(=O)(=O)c1sc(N(C)C(=O)Cc2ccc(-c3ccccc3C)cc2)nc1C
Q. Cc1nc(N(C)C(=O)Cc2ccc(-c3cccc([N+](=O)[O-])c3)cc2)sc1S(=O)(=O)N(C)C
Query: Kindly identify which of P and Q has the larger recorded melting point value. Field: selected label. Fill in the label of the entry you choose.
Reply: P
(P: 167 °C, Q: 81 °C)

====

QUANTITY KIND: melting point (°C)

COCCN(C(=O)Cc1ccc(-c2cc(F)ccc2OC)cc1)c1nc(C)c(S(N)(=O)=O)s1 | 199
Cc1nc(N(CCc2ccccc2)C(=O)Cc2ccc(-c3ccccc3)cc2)sc1S(N)(=O)=O | 174
CCOc1ccc(CC(=O)N(CCOC)c2nc(C)c(S(N)(=O)=O)s2)cc1 | 165
Cc1nc(N(C)C(=O)Cc2ccc(-c3ccncc3F)cc2)sc1S(N)(=O)=O | 223
Cc1nc(N(C)C(=O)Cc2ccc(-c3ncccc3N)cc2)sc1S(N)(=O)=O.Cl | 264

A. CCN(C(=O)Cc1ccc(-c2ccccc2)cc1)c1nc(C)c(S(=O)(=O)NCC(F)(F)F)s1
B. CNS(=O)(=O)c1sc(N(C)C(=O)Cc2ccc(-c3cccnc3)cc2)nc1C.Cl
Query: For A and B , which recorded melting point is lower? Field: selected label. Fill in the label of the entry you choose.
Reply: A
(A: 152 °C, B: 270 °C)

P. Cc1nc(N(C)C(=O)Cc2ccc(-c3cccc(N)c3)cc2)sc1S(N)(=O)=O
Q. C=CCN(C(=O)Cc1ccc(-c2ccccc2)cc1)c1nc(C)c(S(N)(=O)=O)s1
Query: Kindly identify which of P and Q has the larger recorded melting point value. Field: selected label. Fill in the label of the entry you choose.
Reply: P

I. Cc1nc(N(Cc2ccccn2)C(=O)Cc2ccc(-c3ccccc3)cc2)sc1S(N)(=O)=O
II. CNS(=O)(=O)c1sc(N(C)C(=O)Cc2ccc(-c3cncc(C#N)c3)cc2)nc1C
Query: For I and II , which recorded melting point is lower? Field: selected label. Fill in the label of the entry you choose.
Reply: II
(II: 130 °C, I: 205 °C)

a. Cc1nc(N(C)C(=O)Cc2ccc(-c3cccc(N4CCCC4)c3)cc2)sc1S(N)(=O)=O
b. COc1ccc(F)cc1-c1ccc(CC(=O)N(C)c2nc(C)c(S(N)(=O)=O)s2)cc1
Query: For a and b , which recorded melting point is lower? Field: selected label. Fill in the label of the entry you choose.
Reply: a
